METHOD: in vitro
Parameters: species or system CCD841, HEK293
CONDITION_DETAILS: human, hb2 cells, read-out: HB-2 Cells Viability (%)
PARAMETER_MEASURED: viability at 48 h, 10 µM (%)
Please reply with the bare figure in % and do not write the unit itself.

Look at this molecule and give its reported viability at 48 h, 10 µM. CCc1cccc(C)c1NC(=O)CCl [PCM-0102618]
98.3

Look at this molecule and give its reported viability at 48 h, 10 µM. O=C(CCl)N1CCN(Cc2ccc3c(c2)OCCO3)CC1 [PCM-0102386]
42.2

Look at this molecule and give its reported viability at 48 h, 10 µM. O=C(CCl)Nc1cc(C(F)(F)F)ccc1N1CCCC1 [PCM-0102321]
104

Look at this molecule and give its reported viability at 48 h, 10 µM. COC(=O)c1cccc(NC(=O)CCl)n1 [PCM-0102977]
103

Look at this molecule and give its reported viability at 48 h, 10 µM. O=C1CN(C(=O)CCl)C2(CCCCC2)C(=O)N1 [PCM-0102139]
98.9

Look at this molecule and give its reported viability at 48 h, 10 µM. C=CC(=O)Nc1nc(C)cc(C)n1 [PCM-0102547]
98.2

Look at this molecule and give its reported viability at 48 h, 10 µM. Cc1ccc(Cl)cc1NC(=O)CCl [PCM-0102354]
16.3

----------
SYSTEM: NUDT7 (Homo sapiens)
Construct: residues 14-235, E. coli, pNIC28-Bsa4, N-terminal His6 tag removed by TEV, construct 26672 Da
Design: Intact protein LC/MS covalent labelling, fragments in pools of five, 200 uM each, 4 °C
CONDITION_DETAILS: 24 h, 4 °C, pool of five; 200 µM; covalent
Can you tell me NUDT7 for the items I'm about to list?
# respond with the number and nothing more

Look at this compound and give its reported NUDT7. O=C(CCl)N1CCc2sccc2C1 [PCM-0102123]
0.14

Look at this compound and give its reported NUDT7. Cl.O=C(CCl)N1CCN(c2ccccn2)CC1 [PCM-0102213]
0

Look at this compound and give its reported NUDT7. O=C(CCl)Nc1ccccc1[N+](=O)[O-] [PCM-0102232]
0.24

Look at this compound and give its reported NUDT7. CC(C)N1CCC(NC(=O)CCl)CC1.Cl [PCM-0102748]
0

Look at this compound and give its reported NUDT7. C=CC(=O)N1CCC(Cc2ccccn2)CC1 [PCM-0102473]
0

----------
SYSTEM: NUDT7 (Homo sapiens, UniProt P0C024)
Construct: residues 14-235, E. coli, pNIC28-Bsa4, N-terminal His6 tag removed by TEV, construct 26672 Da
Sequence (P0C024 14-235): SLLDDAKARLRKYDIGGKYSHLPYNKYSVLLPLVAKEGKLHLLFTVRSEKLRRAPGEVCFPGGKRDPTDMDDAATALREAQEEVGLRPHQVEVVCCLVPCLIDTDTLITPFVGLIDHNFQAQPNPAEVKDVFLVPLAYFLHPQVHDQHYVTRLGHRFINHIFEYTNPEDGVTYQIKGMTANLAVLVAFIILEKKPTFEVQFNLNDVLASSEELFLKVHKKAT
Design: Intact protein LC/MS covalent labelling, fragments in pools of five, 200 uM each, 4 °C
CONDITION_DETAILS: 24 h, 4 °C, pool of five; 200 µM; covalent
We label by threshold. Values of NUDT7 strictly beneath 0.2 are MET. Values of 0.2 and up are NOT MET.

Lab log: compare recorded NUDT7 with 0.2; is it strictly lower for O=C(CCl)N(CC(F)(F)F)c1ccc(Cl)cc1 ?
NOT MET

Lab log: compare recorded NUDT7 with 0.2; is it strictly lower for CC(C)(C)C1CCc2sc(C(=O)NNC(=O)CCl)cc2C1 (centres unmarked) ?
MET

Lab log: compare recorded NUDT7 with 0.2; is it strictly lower for COc1cccc2sc(NC(=O)CCl)nc12.Cl ?
NOT MET

Lab log: compare recorded NUDT7 with 0.2; is it strictly lower for CN(Cc1ccccc1)C(=O)CCl ?
MET
